Quick record: GI50, HCT-15.

Hi team, please reply with GI50 for each item in this list.
1. CCCCC(=O)c1c(O)nc2sccn2c1=O
2. Clc1ccc(/C=C/c2nc3ccccc3s2)cc1Cl
3. CCC1(N=[N+]=[N-])C(=O)c2ccccc2N(C)C1=O (stereo unspecified)
4. COC(=O)/C(=N\NC(=O)C[N+](C)(C)C)C(C(=O)OC)C(=O)C(=O)Nc1ccccc1C(N)=O (stereo unspecified)
5. CN(C)c1ccc2c(=O)c3ccccc3oc2n1
6. O=S(=O)(O)C(O)/C=C/c1ccccc1 (stereo unspecified)
7. Cc1cc(C)cc(NC(=O)CCC(=O)C2CCC/C2=N\NC(=O)C(=O)NN)c1 (stereo unspecified)

1: > 10 µM; 2: > 100 µM; 3: > 100 µM; 4: > 100 µM; 5: > 100 µM; 6: > 100 µM; 7: > 100 µM

Hi team, please reply with GI50 for each item in this list.
1. C=C1C(=O)O[C@H]2C[C@@H]1C(=O)CC(C)CCCC(C)=CCC[C@@]2(C)O (stereo partly specified)
2. Cc1noc(C)c1-n1nc2ccc3nonc3c2n1
3. O=C(O)c1ccccc1NC(=O)C1CCCCC1
4. COc1cccc(/C=C(\NC(C)=O)c2nc3cc(Cl)ccc3[nH]2)c1

1: > 25 µM; 2: > 100 µM; 3: > 100 µM; 4: > 100 µM

###

- System: OVCAR-5
- Test Details: NCI tumour cell line growth inhibition, 48 h
Calls of active or inactive are those of the source. Rule as the data show it: active = GI50 up to about 1.1 µM and inactive = higher.
The reply should name one outcome from active, inactive

Use these answered entries as a reference point.
• CON(C)C(=O)C(C)NC(=O)OC(C)(C)C (stereo not given) = inactive
• CC(=O)O[C@H]1C(=O)[C@@]2(C)[C@H]([C@H](OC(=O)c3ccccc3)[C@]3(O)C[C@H](OC(=O)[C@H](O)[C@@H](NC(=O)OC(C)(C)C)c4ccco4)C(C)=C1C3(C)C)[C@]1(OC(C)=O)CO[C@@H]1C[C@@H]2O = active
• CC1=CC(=O)/C(=C(/C)NCCN(CCN/C(C)=C2\C(=O)C=C(C)OC2=O)CCN/C(C)=C2\C(=O)C=C(C)OC2=O)C(=O)O1 = inactive
• OCCNC1c2cc(Cl)ccc2-c2c(Cl)cc(Cl)cc21 (stereo not given) = inactive
• C[C@@H]1OC2(O)[C@H]3CCCN3S(=O)(=O)CCN2C1=O (stereo not given in full) = inactive
• CCCCCCCCCOC(=O)c1cnc(Cl)cn1 = inactive

Now consider a different compound.
Given "Oc1cc(-c2ccccc2)cn2c1nc1ccccc12" , state the outcome it received in this test. inactive

###

Consider the following compounds; for each one, report its GI50.
- Test system: 786-0
- Test Details: NCI tumour cell line growth inhibition, 48 h
Activity calls are given as the source filed them. Cut-off read from the data, not from the text of the source: active = GI50 up to about 1.1 µM and inactive = higher.

Field: example entries. Status: answers known.
• CN(C)c1ccc(/C=C2\CNC/C(=C\c3ccc(N(C)C)cc3)C2=O)cc1 = 16.8 µM (inactive)
• C#CCOCC12C=CC(O1)C1C(=O)OCC12 (stereo not given) = > 100 µM (inactive)

Hi team, please reply with GI50 for each item in this list.
1. O=C(O)CN1CCNCCNCC1
2. O=C(CC(C(=O)c1cccs1)c1ccsc1)c1ccc(Cl)cc1 (stereo not given)

1: > 100 µM (inactive); 2: > 100 µM (inactive)
